Target: Recombinant human Tyro3 (455-end) (Homo sapiens, UniProt Q06418)
Construct: GST (N)
Sequence (Q06418 455-890 limits assumed): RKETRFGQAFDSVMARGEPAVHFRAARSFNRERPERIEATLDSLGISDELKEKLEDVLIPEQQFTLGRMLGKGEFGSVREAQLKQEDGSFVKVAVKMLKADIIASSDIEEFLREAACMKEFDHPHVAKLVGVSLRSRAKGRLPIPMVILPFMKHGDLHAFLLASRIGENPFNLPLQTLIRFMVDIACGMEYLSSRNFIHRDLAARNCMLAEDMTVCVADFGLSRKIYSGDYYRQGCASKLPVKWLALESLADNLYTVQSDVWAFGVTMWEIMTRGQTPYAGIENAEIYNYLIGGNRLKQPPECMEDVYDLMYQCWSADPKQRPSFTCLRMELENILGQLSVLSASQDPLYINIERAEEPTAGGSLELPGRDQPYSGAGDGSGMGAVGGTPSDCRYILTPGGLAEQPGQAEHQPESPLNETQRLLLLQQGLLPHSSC
Assay: Kinase enzymatic activity assay ([33P]-ATP phosphate transfer), Tyro3
Settings: inhibitory activity on Tyro3; class symbols
pIC50: −log10 of the molar value.
measurement-type: pIC50

chemical-structure: Nc1ncc(-c2cnn(C3CCOCC3)c2)cc1-c1ncc(-c2ccccc2)o1
pIC50: > 6.30

chemical-structure: CC(=O)N1CCC(n2cc(-c3cnc(N)c(-c4nnc(-c5c(Cl)cccc5Cl)o4)c3)cn2)CC1
pIC50: > 6.30

chemical-structure: Nc1ncc(-c2cnn(C3CCOCC3)c2)cc1-c1ncc(-c2ccc(Cl)cc2)o1
pIC50: < 5.00

chemical-structure: CCCCCCCCCCCCN1CCC(n2cc(-c3cnc(N)c(-c4nc(-c5c(Cl)cccc5Cl)no4)c3)cn2)CC1
pIC50: > 6.30

Prompt: Entry `Nc1ncc(-c2cnn(C3CCCCC3)c2)cc1-c1nnc(-c2ccccc2)o1` has what pIC50?
Completion: 5.00 to 6.00

----------
Measured IC50 accompanies every entry in the list below.
Target: Recombinant human Tyro3 (455-end) (Homo sapiens)
Construct: GST (N)
Experiment: Kinase enzymatic activity assay ([33P]-ATP phosphate transfer), Tyro3
Settings: inhibitory activity on Tyro3; class symbols

chemical-structure: Nc1ncc(-c2cnn(C3CCNCC3)c2)cc1-c1noc(-c2ccccc2)n1
measurement-target: Recombinant human Tyro3 (455-end) (Homo sapiens)
IC50: < 0.5 µM
//
chemical-structure: Nc1ncc(-c2cnn(C3CCN(C(=O)C4CC4)CC3)c2)cc1-c1ncc(-c2ccc(Cl)cc2)o1
measurement-target: Recombinant human Tyro3 (455-end) (Homo sapiens)
IC50: < 0.5 µM
//
chemical-structure: CN1CCC(n2cc(-c3cnc(N)c(-c4ncc(-c5ccc(Cl)cc5)o4)c3)cn2)CC1
measurement-target: Recombinant human Tyro3 (455-end) (Homo sapiens)
IC50: < 0.5 µM
//
chemical-structure: CC(C)(C)OC(=O)N1CCC(n2cc(-c3cnc(N)c(-c4ncc(-c5ccc(Cl)cc5)o4)c3)cn2)CC1
measurement-target: Recombinant human Tyro3 (455-end) (Homo sapiens)
IC50: 1 to 10 µM
//
chemical-structure: Nc1ncc(-c2cnn(C3CCCCC3)c2)cc1-c1ncc(-c2ccc(Cl)cc2)o1
measurement-target: Recombinant human Tyro3 (455-end) (Homo sapiens)
IC50: > 10 µM

Prompt: Sample `Nc1ncc(-c2cnn(C3CCCCC3)c2)cc1-c1ncc(-c2cccc(Cl)c2)o1` — what was its IC50?
Completion: 1 to 10 µM

Prompt: // lookup IC50 for `CN1CCC(n2cc(-c3cnc(N)c(-c4ncc(-c5cccc(Cl)c5)o4)c3)cn2)CC1`
Completion: < 0.5 µM

Prompt: Looking for the measured IC50 of `CC(C)(C)OC(=O)N1CCC(n2cc(-c3cnc(N)c(-c4ncc(-c5ccccc5)o4)c3)cn2)CC1` , can you help?
Completion: 0.5 to 1 µM

Prompt: I would be grateful if you could share the reported IC50 for `Nc1ncc(-c2cn[nH]c2)cc1-c1nnc(-c2cc(F)ccc2F)o1` .
Completion: < 0.5 µM

Prompt: Which value of IC50 has been reported for `Nc1ncc(-c2cnn(C3CCCCC3)c2)cc1-c1nc(-c2ccccc2)no1` in the records?
Completion: 1 to 10 µM

Prompt: Bench note: what IC50 did `Nc1ncc(-c2cnn(C3CCNCC3)c2)cc1-c1nnc(Cc2ccccc2)o1` show?
Completion: < 0.5 µM

Prompt: Suppose we examine the compound `Nc1ncc(-c2cnn(C3CCNCC3)c2)cc1-c1nnc(-c2ccccc2)o1` ; what IC50 value has been reported?
Completion: < 0.5 µM

Prompt: # query: IC50 of entry `CC(C)(C)OC(=O)N1CCC(n2cc(-c3cnc(N)c(-c4nnc(-c5nc(C(F)(F)F)cs5)o4)c3)cn2)CC1`
Completion: 1 to 10 µM

Prompt: IC50 lookup needed for `CC(C)(C)OC(=O)N1CCC(n2cc(-c3cnc(N)c(-c4nnc(Cc5ccccc5)o4)c3)cn2)CC1` , thanks.
Completion: 1 to 10 µM

Prompt: # input compound: `Nc1ncc(-c2cnn(C3CCOCC3)c2)cc1-c1nnc(-c2c(Cl)cccc2Cl)o1` ; wanted: its IC50
Completion: < 0.5 µM

Prompt: Given the entry `CC(C)(C)OC(=O)N1CCC(n2cc(-c3cnc(N)c(-c4nnc(-c5ccc(C(C)(C)C)cc5)o4)c3)cn2)CC1` , report its measured IC50.
Completion: 1 to 10 µM

Prompt: Can you look up the measured IC50 of `CN1CCC(n2cc(-c3cnc(N)c(-c4noc(-c5ccccc5)n4)c3)cn2)CC1` for me?
Completion: < 0.5 µM

Prompt: // lookup IC50 for `CC(C)(C)C(=O)N1CCC(n2cc(-c3cnc(N)c(-c4ncc(-c5cccc(Cl)c5)o4)c3)cn2)CC1`
Completion: < 0.5 µM

Prompt: What value of IC50 has been recorded for this entry: `Nc1ncc(-c2cnn(C3CCNCC3)c2)cc1-c1nnc(-c2cc(F)ccc2F)o1`
Completion: < 0.5 µM

Prompt: Please report the recorded IC50 for `CC(C)(C)OC(=O)N1CCC(n2cc(-c3cnc(N)c(-c4nnc(-c5cccnc5)o4)c3)cn2)CC1` .
Completion: 1 to 10 µM

Prompt: Entry `Nc1ncc(-c2cnn(C3CCCCC3)c2)cc1-c1noc(-c2ccccc2)n1` : reported IC50 = ?
Completion: > 10 µM

Prompt: What value of IC50 has been recorded for this entry: `CC(C)(C)OC(=O)N1CCC(n2cc(-c3cnc(N)c(-c4nnc(-c5cnccn5)o4)c3)cn2)CC1`
Completion: 1 to 10 µM

Prompt: # query: IC50 of entry `Nc1ncc(-c2cnn(C3CCOCC3)c2)cc1-c1nc(-c2c(Cl)cccc2Cl)no1`
Completion: < 0.5 µM

Prompt: Name the recorded IC50 for `CCCCCCCCCCCCN1CCC(n2cc(-c3cnc(N)c(-c4ncc(-c5ccccc5)o4)c3)cn2)CC1` .
Completion: < 0.5 µM
